Entry source: patent US8541449B2

# Target: human recombinant ROCK II (Homo sapiens, UniProt O75116)
# Construct: N-terminal His6-tagged recombinant human ROCK-II residues 11-552; His6 (N); purchased Millipore GmbH, Schwalbach, Germany
# Sequence (O75116 11-552): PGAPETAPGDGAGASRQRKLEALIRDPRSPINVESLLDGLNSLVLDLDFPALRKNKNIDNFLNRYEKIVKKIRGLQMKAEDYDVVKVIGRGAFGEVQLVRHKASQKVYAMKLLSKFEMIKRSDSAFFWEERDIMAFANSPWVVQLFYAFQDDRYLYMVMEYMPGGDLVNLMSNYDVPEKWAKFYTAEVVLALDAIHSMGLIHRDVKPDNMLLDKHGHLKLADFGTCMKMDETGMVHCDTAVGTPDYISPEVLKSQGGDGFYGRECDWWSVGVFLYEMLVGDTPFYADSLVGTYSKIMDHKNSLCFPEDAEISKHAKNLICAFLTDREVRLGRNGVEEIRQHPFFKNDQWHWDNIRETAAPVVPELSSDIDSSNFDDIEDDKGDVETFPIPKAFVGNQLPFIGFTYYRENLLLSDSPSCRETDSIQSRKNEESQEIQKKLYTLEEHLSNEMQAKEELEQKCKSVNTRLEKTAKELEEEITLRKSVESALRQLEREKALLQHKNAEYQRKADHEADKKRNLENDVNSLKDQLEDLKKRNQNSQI
# Experiment summary: Determination of Rho kinase inhibition (Caliper peptide phosphorylation assay)
# Format: biochemical
# Conditions used: 60 min at 32° C., negative decadal logarithm of the IC50
Measurement label: pIC50

Example entries begin here.
CCC(N)[C@]1(c2ccccc2)CC[C@H](Oc2c(F)cc3c(=O)[nH]ccc3c2C)CC1 (some centres unmarked) | +++++ (6.0≦pIC50<7.0)
CCC(N)[C@]1(c2ccccc2)CC[C@H](Oc2cc3ccncc3cc2Br)CC1 (some centres unmarked) | +++++ (6.0≦pIC50<7.0)
CCC(N)[C@]1(c2ccc(F)cc2)CC[C@@H](Oc2cc3cc[nH]c(=O)c3cc2Cl)CC1 (some centres unmarked) | ++++++ (7.0≦pIC50<8.0)
CCC(N)[C@]1(c2ccccc2)C[C@H]2C[C@@H]1CC2Oc1cc2cc[nH]c(=O)c2cc1Cl (some centres unmarked) | +++++ (6.0≦pIC50<7.0)
CC(C)C(N)[C@]1(c2ccccc2)CC[C@@H](Oc2cc3cc[nH]c(=O)c3cc2Cl)CC1 (some centres unmarked) | +++++ (6.0≦pIC50<7.0)

Exam item: Record request: pIC50 value, item CCC(N)[C@]1(c2ccccc2)CC[C@H](Oc2cc3ccnc(N)c3cc2Cl)CC1 (some centres unmarked)
Marked response: ++++++ (7.0≦pIC50<8.0)

Exam item: Record request: pIC50 value, item CCCC(N)[C@]1(c2ccc(F)cc2)CC[C@H](Oc2cc3cc[nH]c(=O)c3cc2Cl)CC1 (some centres unmarked)
Marked response: +++++++ (8.0≦pIC50)

Exam item: Record request: pIC50 value, item NC(C1CC1)[C@]1(c2ccc(F)cc2)CC[C@H](Oc2cc3cc[nH]c(=O)c3cc2Cl)CC1 (some centres unmarked)
Marked response: +++++++ (8.0≦pIC50)

---

Would you mind telling me the reported Selectivity against PKA of each entry?
# Target: recombinant human PKA (Homo sapiens)
# Construct: Active recombinant human PKA (residues 1-351, N-terminal His-tag); His-tag (N); purchased Invitrogen, Karlsruhe, Germany
# Experiment summary: Determination of Protein Kinase A inhibition (Caliper peptide phosphorylation assay)
# Format: biochemical
# Conditions used: recombinant human PKA versus ROCK II

Exam item: Record request: Selectivity against PKA value, item CC(N)(c1ccccc1)C1CCC(Oc2cc3cc[nH]c(=O)c3cc2Cl)CC1 (single isomer, unassigned) [Example 123]
Marked response: >100

Exam item: Record request: Selectivity against PKA value, item CCOc1cccc([C@]2(C(N)CC)CC[C@@H](Oc3cc4cc[nH]c(=O)c4cc3Cl)CC2)c1 (some centres unmarked)
Marked response: >1000

Exam item: Record request: Selectivity against PKA value, item CCCC(N)[C@]1(c2ccc(F)cc2)CC[C@H](Oc2cc3cc[nH]c(=O)c3cc2Cl)CC1 (some centres unmarked)
Marked response: >1000

Exam item: Record request: Selectivity against PKA value, item CC(N)C[C@]1(c2ccc(F)cc2)CC[C@H](Oc2cc3cc[nH]c(=O)c3cc2Cl)CC1 (some centres unmarked)
Marked response: >300

Exam item: Record request: Selectivity against PKA value, item COc1ccc(C(N)[C@H]2CC[C@@H](Oc3cc4cc[nH]c(=O)c4cc3Cl)CC2)cc1 (single isomer, unassigned) [Example 35]
Marked response: >1000

---

# Target: recombinant human PKA (Homo sapiens, UniProt P17612)
# Construct: Active recombinant human PKA (residues 1-351, N-terminal His-tag); His-tag (N); purchased Invitrogen, Karlsruhe, Germany
# Experiment summary: Determination of Protein Kinase A inhibition (Caliper peptide phosphorylation assay)
# Format: biochemical
# Conditions used: recombinant human PKA versus ROCK II
Measurement label: Selectivity against PKA

Exam item: Record request: Selectivity against PKA value, item CCCC(C)(N)C1CCC(Oc2cc3cc[nH]c(=O)c3cc2Cl)CC1 (single isomer, unassigned) [Example 124]
Marked response: >100

Exam item: Record request: Selectivity against PKA value, item CCCC(N)[C@]1(c2ccc(F)cc2)CC[C@@H](Oc2cc3cc[nH]c(=O)c3cc2Cl)CC1 (stereo partly shown) [Example 12]
Marked response: >100

Exam item: Record request: Selectivity against PKA value, item CCC(N)C1CCC(Oc2cc3cc[nH]c(=O)c3cc2Cl)CC1 (single isomer, unassigned) [Example 130]
Marked response: >300

Exam item: Record request: Selectivity against PKA value, item CCC(N)[C@]1(c2cccc(OC)c2)CC[C@H](Oc2cc3cc[nH]c(=O)c3cc2Cl)CC1 (stereo partly shown) [Example 28]
Marked response: >1000

---

# Target: recombinant human PKG1-beta (Homo sapiens, UniProt Q13976)
# Construct: Active recombinant human PKG1-beta (full-length, with N-terminal His-tag); His-tag (N); purchased Millipore GmbH, Schwalbach, Germany
# Sequence (Q13976 1-686 isoform Q13976-2): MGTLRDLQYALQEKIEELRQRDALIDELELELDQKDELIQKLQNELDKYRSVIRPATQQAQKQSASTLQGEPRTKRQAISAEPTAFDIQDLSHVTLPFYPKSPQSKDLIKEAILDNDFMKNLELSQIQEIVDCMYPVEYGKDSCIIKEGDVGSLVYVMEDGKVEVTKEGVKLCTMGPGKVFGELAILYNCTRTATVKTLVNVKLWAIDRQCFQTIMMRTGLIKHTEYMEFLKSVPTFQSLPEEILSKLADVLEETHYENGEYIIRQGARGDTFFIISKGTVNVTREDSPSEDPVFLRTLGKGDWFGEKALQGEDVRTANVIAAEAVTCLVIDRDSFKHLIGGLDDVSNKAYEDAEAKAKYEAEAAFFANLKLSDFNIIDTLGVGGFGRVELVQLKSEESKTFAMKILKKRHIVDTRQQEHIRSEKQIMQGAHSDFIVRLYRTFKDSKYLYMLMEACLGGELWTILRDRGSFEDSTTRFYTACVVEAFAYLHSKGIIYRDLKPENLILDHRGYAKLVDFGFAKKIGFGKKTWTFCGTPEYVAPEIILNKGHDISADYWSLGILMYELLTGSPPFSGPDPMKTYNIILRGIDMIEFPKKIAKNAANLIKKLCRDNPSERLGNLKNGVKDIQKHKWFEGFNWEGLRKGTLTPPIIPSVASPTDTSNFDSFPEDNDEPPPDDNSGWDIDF
# Experiment summary: Determination of Protein Kinase G inhibition (Caliper peptide phosphorylation assay)
# Type: biochemical
# Conditions used: recombinant human PKG1-beta versus ROCK II
Measurement label: Selectivity against PKG

Exam item: Record request: Selectivity against PKG value, item CCC(N)[C@]1(c2ccc(F)cc2)CC[C@@H](Oc2cc3cc[nH]c(=O)c3cc2Cl)CC1 (stereo partly drawn)
Marked response: >100

Exam item: Record request: Selectivity against PKG value, item CCC(N)[C@]1(c2ccc(F)cc2C)CC[C@H](Oc2cc3cc[nH]c(=O)c3cc2Cl)CC1 (stereo partly drawn)
Marked response: >300

Exam item: Record request: Selectivity against PKG value, item CCC(N)[C@]1(c2cccc(Br)c2)CC[C@@H](Oc2cc3cc[nH]c(=O)c3cc2Cl)CC1 (stereo partly drawn)
Marked response: >100

Exam item: Record request: Selectivity against PKG value, item CCCC(N)[C@]1(c2ccccc2)CC[C@@H](Oc2cc3cc[nH]c(=O)c3cc2Cl)CC1 (stereo partly drawn)
Marked response: >100

Exam item: Record request: Selectivity against PKG value, item NC(C1CC1)[C@]1(c2ccc(F)cc2)CC[C@H](Oc2cc3cc[nH]c(=O)c3cc2Cl)CC1 (stereo partly drawn)
Marked response: >1000

Exam item: Record request: Selectivity against PKG value, item CC(N)[C@]1(c2ccc(F)cc2)CC[C@@H](Oc2cc3cc[nH]c(=O)c3cc2Cl)CC1 (stereo partly drawn)
Marked response: >100

Exam item: Record request: Selectivity against PKG value, item CCC(N)[C@]1(c2cccc(OC(F)(F)F)c2)CC[C@H](Oc2cc3cc[nH]c(=O)c3cc2Cl)CC1 (stereo partly drawn)
Marked response: >10

Exam item: Record request: Selectivity against PKG value, item CCC(N)[C@]1(c2cc(F)cc(F)c2)CC[C@H](Oc2cc3cc[nH]c(=O)c3cc2F)CC1 (stereo partly drawn)
Marked response: >10

Exam item: Record request: Selectivity against PKG value, item COc1ccc(C(N)[C@H]2CC[C@@H](Oc3cc4cc[nH]c(=O)c4cc3Cl)CC2)cc1 (single isomer, unassigned) [Example 36]
Marked response: >300

Exam item: Record request: Selectivity against PKG value, item CCC(N)[C@]1(c2ccccn2)CC[C@H](Oc2cc3cc[nH]c(=O)c3cc2Cl)CC1 (stereo partly drawn)
Marked response: >300

Exam item: Record request: Selectivity against PKG value, item CC(C)C(N)[C@]1(c2ccccc2)CC[C@@H](Oc2cc3cc[nH]c(=O)c3cc2Cl)CC1 (stereo partly drawn)
Marked response: >100

Exam item: Record request: Selectivity against PKG value, item NC1([C@]2(c3ccccc3)CC[C@H](Oc3cc4cc[nH]c(=O)c4cc3Cl)CC2)CC1
Marked response: >1000

Exam item: Record request: Selectivity against PKG value, item CCC(N)[C@]1(c2ccc(C#N)cc2)CC[C@H](Oc2cc3cc[nH]c(=O)c3cc2Cl)CC1 (stereo partly drawn)
Marked response: >300

Exam item: Record request: Selectivity against PKG value, item CCC(N)C1(c2ccc(F)cc2)CC(Oc2cc3cc[nH]c(=O)c3cc2Cl)C1 (stereo not drawn)
Marked response: >10

Exam item: Record request: Selectivity against PKG value, item CCC(N)[C@]1(c2ccccc2OC)CC[C@H](Oc2cc3cc[nH]c(=O)c3cc2Cl)CC1 (stereo partly drawn)
Marked response: >300

Exam item: Record request: Selectivity against PKG value, item CCC(N)C[C@]1(c2ccc(F)cc2)CC[C@H](Oc2cc3cc[nH]c(=O)c3cc2Cl)CC1 (stereo partly drawn)
Marked response: >100

Exam item: Record request: Selectivity against PKG value, item NC(c1ccccc1)C1(c2ccccc2)CCC(Oc2cc3cc[nH]c(=O)c3cc2Cl)CC1 (single isomer, unassigned) [Example 41]
Marked response: >10

Exam item: Record request: Selectivity against PKG value, item CCCC(C)(N)C1CCC(Oc2cc3cc[nH]c(=O)c3cc2Cl)CC1 (single isomer, unassigned) [Example 121]
Marked response: >10

Exam item: Record request: Selectivity against PKG value, item CCC(N)[C@]1(c2ccccc2)CC[C@H](Oc2c(F)cc3c(=O)[nH]ccc3c2C)CC1 (stereo partly drawn)
Marked response: >10

Exam item: Record request: Selectivity against PKG value, item CCC(N)[C@@]1(c2ccccc2)C[C@@H]2C[C@H]1CC2Oc1cc2cc[nH]c(=O)c2cc1Cl (stereo partly drawn)
Marked response: >1000

Exam item: Record request: Selectivity against PKG value, item CC(N)(c1ccccc1)C1CCC(Oc2cc3cc[nH]c(=O)c3cc2Cl)CC1 (stereo not drawn) [Example 34]
Marked response: >10

Exam item: Record request: Selectivity against PKG value, item NC(c1ccccc1)C1(c2ccccc2)CCC(Oc2cc3cc[nH]c(=O)c3cc2Cl)CC1 (single isomer, unassigned) [Example 42]
Marked response: >300

Exam item: Record request: Selectivity against PKG value, item CCC(N)[C@]1(c2cc(F)cc(F)c2)CC[C@H](Oc2cc3cc[nH]c(=O)c3cc2Cl)CC1 (stereo partly drawn)
Marked response: >100

Exam item: Record request: Selectivity against PKG value, item CCC(N)[C@]1(c2ccc(F)c(F)c2)CC[C@H](Oc2cc3cc[nH]c(=O)c3cc2Cl)CC1 (stereo partly drawn)
Marked response: >300

Exam item: Record request: Selectivity against PKG value, item Cc1ccc(C(N)C2CCC(Oc3cc4cc[nH]c(=O)c4cc3Cl)CC2)cc1 (single isomer, unassigned) [Example 38]
Marked response: >300

Exam item: Record request: Selectivity against PKG value, item CCC(N)[C@]1(c2ccccc2Br)CC[C@H](Oc2cc3cc[nH]c(=O)c3cc2Cl)CC1 (stereo partly drawn)
Marked response: >300

Exam item: Record request: Selectivity against PKG value, item CC(C)(N)[C@]1(c2ccc(F)cc2)CC[C@@H](Oc2cc3cc[nH]c(=O)c3cc2Cl)CC1
Marked response: >100

Exam item: Record request: Selectivity against PKG value, item CC(C)(N)[C@]1(c2ccc(F)cc2)CC[C@H](Oc2cc3cc[nH]c(=O)c3cc2Cl)CC1
Marked response: >300

Exam item: Record request: Selectivity against PKG value, item CC(N)(c1ccc(F)cc1)C1CCC(Oc2cc3cc[nH]c(=O)c3cc2Cl)CC1 (single isomer, unassigned)
Marked response: >10

Exam item: Record request: Selectivity against PKG value, item CCC(N)[C@]1(c2cccc(OC)c2)CC[C@H](Oc2cc3cc[nH]c(=O)c3cc2Cl)CC1 (stereo partly drawn)
Marked response: >1000
